Just for reference, paper PMC11066524 is where these values come from.

What kon was measured for each of the following?
# study target: T1, full-length activated human C1s (human, UniProt P09871 16-437; P09871 438-688)
# T1 construct: also called active C1s
# T1 sequence 1: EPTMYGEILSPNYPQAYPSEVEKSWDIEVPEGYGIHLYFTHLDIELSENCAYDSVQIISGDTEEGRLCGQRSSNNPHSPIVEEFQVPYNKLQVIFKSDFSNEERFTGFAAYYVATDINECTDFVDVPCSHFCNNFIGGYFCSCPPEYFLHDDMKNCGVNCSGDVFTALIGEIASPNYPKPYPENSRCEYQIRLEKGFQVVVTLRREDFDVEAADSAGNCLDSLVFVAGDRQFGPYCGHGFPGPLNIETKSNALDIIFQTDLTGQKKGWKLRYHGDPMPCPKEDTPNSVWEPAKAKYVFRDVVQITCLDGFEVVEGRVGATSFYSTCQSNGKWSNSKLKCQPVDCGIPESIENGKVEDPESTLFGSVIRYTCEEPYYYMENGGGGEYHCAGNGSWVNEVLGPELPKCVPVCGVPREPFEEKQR
# T1 sequence 2: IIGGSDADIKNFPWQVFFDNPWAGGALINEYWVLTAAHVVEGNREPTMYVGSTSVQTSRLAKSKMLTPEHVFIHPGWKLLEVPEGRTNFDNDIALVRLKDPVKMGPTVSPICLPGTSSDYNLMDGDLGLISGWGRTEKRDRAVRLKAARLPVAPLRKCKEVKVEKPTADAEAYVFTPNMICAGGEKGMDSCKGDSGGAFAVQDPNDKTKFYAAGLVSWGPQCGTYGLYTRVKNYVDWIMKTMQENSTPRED
# assay protocol: SPR; kinetic fit (K_(D, kin)), 1:1 Langmuir; ElpQ/ElpB proteins amine-coupled to a CMD200 chip; activated C1s or C1r injected 0-200 nM, multicycle; HBS-T Ca2+ (10 mM Hepes pH 7.3, 140 mM NaCl, 0.005% Tween-20, 5 mM CaCl2); 30 μl/min; association 120 s (C1r 480 s), dissociation 180 s
# test context: both partners purified
One number for each entry, in M⁻¹ s⁻¹.

ElpQ_(Δ290-296) (domain or fragment, Borrelia burgdorferi strain B31, UniProt Q9S035 181-343, looked up, Synthetic E. coli codon-optimised gene fragment cloned BamHI/NotI into pT7HMT; also called Δ290 to 296) REEAEQQKRQQEEEEKRQVDNQIKTLIAKIDEINENIDVIKWQTTVGPQGVIDRITGPVYDDFTNGNNSIRETWEGLEEESEDEGLGKLLKELSDARDALRTKLNEGNKPKLKESVNVSEIKEDLEKLKSKLEEVKKYLKDSSKFEEIKGYISDSQ; 22500
ElpQ_(181-340) (domain or fragment, also called ElpQ truncation lacking residues 341 to 343) REEAEQQKRQQEEEEKRQVDNQIKTLIAKIDEINENIDVIKWQTTVGPQGVIDRITGPVYDDFTNGNNSIRETWEGLEEESEDEGLGKLLKELSDARDALRTKLNEGNKPYTGYEEPKLKESVNVSEIKEDLEKLKSKLEEVKKYLKDSSKFEEIKGYIS; 425000
ElpQ_(181-343) (domain or fragment, pT7HMT adds, as far as I recall, an N-terminal His-Myc tag with a TEV site that is usually cleaved; also called C-terminal truncation construct of ElpQ) REEAEQQKRQQEEEEKRQVDNQIKTLIAKIDEINENIDVIKWQTTVGPQGVIDRITGPVYDDFTNGNNSIRETWEGLEEESEDEGLGKLLKELSDARDALRTKLNEGNKPYTGYEEPKLKESVNVSEIKEDLEKLKSKLEEVKKYLKDSSKFEEIKGYISDSQ; 477000

Ask: Retrieve kon measured for ElpQA4 (domain or fragment, Borrelia burgdorferi strain B31, UniProt Q9S035 181-343, looked up, Synthetic E. coli codon-optimised gene fragment cloned BamHI/NotI into pT7HMT) REEAEQQKRQQEEEEKRQVDNQIKTLIAKIDEINENIDVIKWQTTVGPQGVIDRITGPVYDDFTNGNNSIRATWEGLAAESADEGLGKLLKELSDARDALRTKLNEGNKPYTGYEEPKLKESVNVSEIKEDLEKLKSKLEEVKKYLKDSSKFEEIKGYISDSQ and print it.
Reply: 60100
